- assay_notes: Inhibition of HFIP-pretreated Tau (306 to 336) (unknown origin) self-aggregation at 25 uM measured at interval of 10 mins for overnight with 1 min shaking by thioflavin-T fluorescence method
- condition_label: Homo sapiens
We use 40% as the dividing line for inhibition: on or above the line is fulfilled, below is not fulfilled.

Example cases with answers are listed next.
{"columns": ["compound", "discrete_label"],
 "data": [
  ["COc1ccc2cc3[n+](cc2c1OC(C)c1ccccc1)CCc1cc2c(cc1-3)OCO2.[Br-] (stereo not given)", "not fulfilled"],
  ["COc1ccc2cc3[n+](cc2c1OCc1ccc(C)cc1)CCc1cc2c(cc1-3)OCO2.[Br-]", "not fulfilled"],
  ["COc1ccc2cc3[n+](cc2c1OC)CCc1cc2c(cc1-3)OCO2.[Cl-] [BERBERINE CHLORIDE]", "not fulfilled"]
]}

From here, focus on the item given below.
Input line: Given the entry COc1ccc2cc3[n+](cc2c1OCc1ccc2ccccc2c1)CCc1cc2c(cc1-3)OCO2.[Br-] , answer whether its inhibition meets or surpasses 40%.
Output line: fulfilled

====

- subject_of_test: UniProt:P48147
- Sequence (P48147 whole entry): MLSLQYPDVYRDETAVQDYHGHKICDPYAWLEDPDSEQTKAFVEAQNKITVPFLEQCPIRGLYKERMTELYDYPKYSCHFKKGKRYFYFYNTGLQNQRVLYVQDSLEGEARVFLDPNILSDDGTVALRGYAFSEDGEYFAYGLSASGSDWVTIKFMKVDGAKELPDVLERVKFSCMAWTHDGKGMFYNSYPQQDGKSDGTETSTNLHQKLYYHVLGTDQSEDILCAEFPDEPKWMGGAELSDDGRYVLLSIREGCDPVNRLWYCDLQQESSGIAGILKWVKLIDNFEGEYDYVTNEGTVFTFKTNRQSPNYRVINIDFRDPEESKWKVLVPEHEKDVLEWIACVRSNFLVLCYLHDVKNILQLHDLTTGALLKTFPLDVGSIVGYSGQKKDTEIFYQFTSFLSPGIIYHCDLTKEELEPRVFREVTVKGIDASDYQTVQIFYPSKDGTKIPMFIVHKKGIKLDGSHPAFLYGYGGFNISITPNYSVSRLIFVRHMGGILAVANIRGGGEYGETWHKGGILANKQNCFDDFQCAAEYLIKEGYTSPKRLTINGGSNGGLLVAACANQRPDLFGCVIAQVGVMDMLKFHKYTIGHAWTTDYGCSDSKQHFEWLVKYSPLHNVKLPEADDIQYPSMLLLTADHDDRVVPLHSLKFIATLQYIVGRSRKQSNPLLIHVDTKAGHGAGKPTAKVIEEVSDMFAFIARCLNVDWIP
measure_name: IC50 (µM)
# output: bare number, implied unit µM

Check out these entries, answers already filled in.
{"columns": ["compound", "IC50 / µM"],
 "data": [
  ["COc1ccc(COc2c(OC)ccc3cc4[n+](cc23)CCc2cc3c(cc2-4)OCO3)cc1.[Br-]", 40.5],
  ["COc1ccc2cc3[n+](cc2c1OCc1ccc(Br)cc1)CCc1cc2c(cc1-3)OCO2.[Br-]", 19.4],
  ["COc1cccc(COc2c(OC)ccc3cc4[n+](cc23)CCc2cc3c(cc2-4)OCO3)c1", 40.4],
  ["COc1ccc2cc3[n+](cc2c1OCc1cc(C)cc(C)c1)CCc1cc2c(cc1-3)OCO2", 58.7]
]}

Input line: IC50 for COC(=O)c1ccc(COc2c(OC)ccc3cc4[n+](cc23)CCc2cc3c(cc2-4)OCO3)cc1 ?
Output line: 47.6

Input line: IC50 for COc1ccc2cc3[n+](cc2c1OCc1ccccc1Br)CCc1cc2c(cc1-3)OCO2 ?
Output line: 38.9

Input line: IC50 for COc1ccc2cc3[n+](cc2c1OCc1ccc(C)cc1)CCc1cc2c(cc1-3)OCO2.[Br-] ?
Output line: 10.7

Input line: IC50 for COc1ccc2cc3[n+](cc2c1OCc1ccc(C(C)C)cc1)CCc1cc2c(cc1-3)OCO2 ?
Output line: 53.3

Input line: IC50 for COc1ccc2cc3[n+](cc2c1OCc1ccc2ccccc2c1)CCc1cc2c(cc1-3)OCO2.[Br-] ?
Output line: 28.5

Input line: IC50 for COc1ccc2cc3[n+](cc2c1OCc1cccc(C)c1)CCc1cc2c(cc1-3)OCO2 ?
Output line: 79.1

Input line: IC50 for COc1ccc2cc3[n+](cc2c1OCc1cccc(Cl)c1)CCc1cc2c(cc1-3)OCO2 ?
Output line: 67

Input line: IC50 for COc1ccc2cc3[n+](cc2c1OCc1ccccc1)CCc1cc2c(cc1-3)OCO2.[Br-] ?
Output line: 25.4
